The values you see were collected from PubChem BioAssay (NCI).

- assay_overview: NCI Yeast Anticancer Drug Screen. Data for the bub3 strain (AID 167)
- test_settings: S. cerevisiae bub3 mutant strain, at 50.0 µM, active compounds read high
About 79,000 compounds went through this panel and 15% of them were active in at least one assay; those are over-represented in the sample as a whole.
# if value of growth inhibition reaches 90%, tag Met; if it stays below, tag Not met

>>> df
                                   compound  qualitative_label
0  CCCC(C)OC(=O)Nc1cccc(Cl)c1 (stereo not drawn)                Met
1  O=[N+]([O-])c1cccc(Cl)c1C(Nc1nncs1)Nc1nncs1            Not met
2  COc1cccc2c1C(=O)c1c(O)c3c(c(O)c1C2=O)C[C@@](O)(/C(C)=N\NC(N)=O)C[C@@H]3OC1CC(N)C(O)C(C)O1 (stereo partly drawn)            Not met
3  C=C1CC(c2ccc(OCCCN3C(=O)c4ccccc4C3=O)cc2)OC1=O (stereo not drawn)            Not met
4           O=C1CN=C(c2ccccc2)N(c2ccccc2)N1                Met
5  CC(CC(C#CCN(C)C)N(C)C)CC(C)(C)C (stereo not drawn)            Not met

[in] Record `[N-]=[N+]=Nc1ccnc2ccc(C3CCCCC3)cc12` ; criterion: growth inhibition no lower than 90%. Met?
[out] Not met

[in] Record CC(=O)NC(CCC(=O)O)C(=O)O.[NH-]C1CCCCC1[NH-].[Pt+2] (stereo not drawn) ; criterion: growth inhibition no lower than 90%. Met?
[out] Met

[in] Record `Cc1ccc(-c2ccccc2)n1-c1cc(Cl)ccc1O` ; criterion: growth inhibition no lower than 90%. Met?
[out] Met

[in] Record `C1=C(C2=CCCc3ccccc32)c2ccccc2CC1` ; criterion: growth inhibition no lower than 90%. Met?
[out] Not met

[in] Record `COc1ccccc1NC(=O)Oc1ccc(C(C)(CCC(=O)O)c2ccc(OC(=O)Nc3ccccc3OC)cc2)cc1` ; criterion: growth inhibition no lower than 90%. Met?
[out] Not met

[in] Record Oc1cc2c(cc1C(c1ccc(Cl)cc1)N1CCOCC1)OCO2 (stereo not drawn) ; criterion: growth inhibition no lower than 90%. Met?
[out] Met

[in] Record CC1(CO)CCCC2(C)C1CCC1CC3C=CC12C1C(=O)OC(=O)C31 (stereo not drawn) ; criterion: growth inhibition no lower than 90%. Met?
[out] Not met

[in] Record `COc1ccc(C(=O)[O][Sn]([c]2ccccc2)([c]2ccccc2)[c]2ccccc2)c(OC)c1OC` ; criterion: growth inhibition no lower than 90%. Met?
[out] Met

[in] Record `COc1ccccc1/C=N/Nc1nnc(N/N=C/c2ccccc2OC)c2ccccc12` ; criterion: growth inhibition no lower than 90%. Met?
[out] Met

[in] Record `O=[N+]([O-])c1ccc(C2=Nn3c(nnc3-c3ccc(Cl)cc3)SC2)o1` ; criterion: growth inhibition no lower than 90%. Met?
[out] Not met

----------
- assay_overview: NCI Yeast Anticancer Drug Screen. Data for the bub3 strain (AID 167)
- test_settings: S. cerevisiae bub3 mutant strain, at 50.0 µM (retest, dose inferred, filed as 5.0), active compounds read high
Compounds without any hit were thinned out: in the full panel of roughly 79,000, 15% have a hit.
result_type: growth inhibition (%)
The reply should contain only the number, in %.

                                   compound  recorded_result
0  C/C(=N\N=C(N)N)c1ccc2c(c1)Cc1cc(/C(C)=N/N=C(N)N)ccc1-2               98
1  OCCCC(Sc1ccccc1)c1ccccc1 (stereo unspecified)                3
2  CCCCP(CCCC)(CCCC)=C(C(=O)OC)C(C(=O)OC)=C1SC(C(=O)OC)=C(C(=O)OC)S1               47
3  Cc1cc(S(=O)(=O)Nc2n[nH]c(-c3ccccn3)n2)c(S)cc1Cl               93

[in] Which value of growth inhibition has been reported for CCCCCCCCCCCCCCCC1C(N)C(=O)N(C)N1C (stereo unspecified) in the records?
[out] 95

[in] Which value of growth inhibition has been reported for `O=C(O)c1ccccc1-c1c2cc(I)c(=O)c(I)c-2oc2c(I)c(O)c(I)cc12` in the records?
[out] 98

[in] Which value of growth inhibition has been reported for CC1(c2ccccc2)OC1C(=O)N(c1ccccc1)c1ccccc1 (stereo unspecified) in the records?
[out] 98

[in] Which value of growth inhibition has been reported for `CCOC(=O)c1cnn(-c2ccccc2)c1N` in the records?
[out] 98

[in] Which value of growth inhibition has been reported for `CCCOC(=O)C#CC(=O)OCCC` in the records?
[out] 99

[in] Which value of growth inhibition has been reported for Cc1nn(C(=O)c2ccccc2O)c2c1C(c1ccc(O)cc1O)SC(N)=N2 (stereo unspecified) in the records?
[out] 81

[in] Which value of growth inhibition has been reported for `Cc1cc(C(=O)CBr)c(CN2C(=O)c3ccccc3C2=O)c(=O)n1C` in the records?
[out] 98

----------
growth inhibition values, listed per item
- assay_overview: NCI Yeast Anticancer Drug Screen. Data for the sgs1 mgt1 strain (AID 161);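 further: 0% = growth of cultures given vehicle only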
- test_settings: S. cerevisiae sgs1 mgt1 strain, at 5.0 µM (retest, dose inferred, filed as 0.5), active compounds read high
This is part of a sample that, as a whole, favours compounds with a hit. Of some 79,000 tested, about 15% had one in any assay.
The reply should contain only the number, in %.

See these solved cases before continuing.
In [3]: df
Out[3]:
                                   compound        result_type  u  recorded_result
0  O=C(/C(=C/c1ccc2c(c1)OCO2)c1ccccc1)c1ccc(OCCN2CCCC2)cc1  growth inhibition  %               -3
1  c1ccc([P+](C[P+](c2ccccc2)(c2ccccc2)c2ccccc2)(c2ccccc2)c2ccccc2)cc1  growth inhibition  %               98
2        O=[N+]([O-])c1cccc(C=Nc2ccccc2O)c1  growth inhibition  %               13
3  CCCCN(CCCC)CC(O)c1cc(-c2ccc(Cl)cc2)nc2c(C)cccc12 (stereo not drawn)  growth inhibition  %               19
4  O=C(Nc1c(Cl)cc([N+](=O)[O-])cc1Cl)/C(=N\Nc1cccc(Cl)c1)c1c(O)c2ccccc2oc1=O  growth inhibition  %               14
5  O=[N+]([O-])c1ccc(C=NC2CCCCC2)c([N+](=O)[O-])c1  growth inhibition  %                2
6  O=c1oc(-c2cc([N+](=O)[O-])cc([N+](=O)[O-])c2Cl)nc2ccccc12  growth inhibition  %               13
7  Cc1ccc2c(c1)C(O)(c1ccccc1)CCS2 (stereo not drawn)  growth inhibition  %               86

[in] Which value of growth inhibition has been reported for `CCOC(=O)CSc1c(C(=O)OCC)c(=O)n(-c2ccccc2)c(=S)n1-c1ccccc1` in the records?
[out] 75

[in] Which value of growth inhibition has been reported for `O=C1C=CCCCC1(c1ccccc1)c1ccccc1` in the records?
[out] 5

----------
- assay_overview: NCI Yeast Anticancer Drug Screen. Data for the mlh1 rad18 strain (AID 175)
- test_settings: S. cerevisiae mlh1 rad18 strain growth inhibition; at 50.0 µM (retest, dose inferred, filed as 5.0); active compounds read high
- Description: Growth inhibition of yeast strains with defined genetic alterations is measured as a screen for potential anti-cancer activity. Selected strains with alterations in DNA damage repair or cell cycle control were exposed to compounds and growth inhibition was measured relative to vehicle treated controls. The strain used in this assay is mlh1 rad18
This is part of a sample that, as a whole, favours compounds with a hit. Of some 79,000 tested, about 15% had one in any assay.
result_type: growth inhibition (%)
The reply should contain only the number, in %.

See these solved cases before continuing.
In [3]: df
Out[3]:
                                   compound  u  recorded_result
0     COC(=O)c1ccc(NCc2c(O)ccc(O)c2Br)cc1Cl  %               98
1  O=[N+]([O-])/C(Cl)=C(/C(Cl)=C(Cl)Cl)N1CCCCC1  %               27

[in] Which value of growth inhibition has been reported for CC/S(=N\S(=O)(=O)c1ccc(C)cc1)c1cccc[n+]1[O-] (stereo unspecified) in the records?
[out] 98

[in] Which value of growth inhibition has been reported for `O=C1c2c(F)c(F)c(F)c(F)c2SC2=NCCN12` in the records?
[out] 98

[in] Which value of growth inhibition has been reported for CCCCCCCNC1CCCc2cc(OC)ccc21 (stereo unspecified) in the records?
[out] 60

[in] Which value of growth inhibition has been reported for `COc1ccc(SSc2ccc(OC)n[n+]2[O-])[n+]([O-])n1` in the records?
[out] 99
